tested on: huH-1 (Hepatocellular Carcinoma); test: combination Emax (second highest fraction inhibited in the dose matrix, 72 h); higher = more inhibition; extreme values may be limits of the assay
For each of the compounds below, state its combination Emax.
Numbers only.

{"columns": ["compound", "obsValue"],
 "data": [
  ["C=CCn1c(=O)c2cnc(Nc3ccc(N4CCN(C)CC4)cc3)nc2n1-c1cccc(C(C)(C)O)n1 [AZD1775] + O=C(c1cc(Cc2n[nH]c(=O)c3ccccc23)ccc1F)N1CCN(C(=O)C2CC2)CC1 [Olaparib] (first compound max 1 µM, partner max 10 µM)", 0.634]
]}

Turning to the following compound.
Quick check: combination Emax of COc1nnc2ccc(N3CCC(c4ccc(OCCN5CCN(C)C(=O)[C@H]5C)cc4)CC3)nn12 [AZD5153] + Cc1c2c(nn1C)CSCc1cc(n(C)n1)CSc1cc(c3ccccc3c1)OCCCc1c(C(=O)O)n(C)c3c-2c(Cl)ccc13 [AZD5991] (first compound max 1 µM, 7x7, partner max 1 µM) ?
0.435
